Test system: F1*sub RNA substrate (template-directed ligation)
run_description: fraction ligated after 30 min (ligated reads / total reads); higher = more ligase activity; sequences stand for … in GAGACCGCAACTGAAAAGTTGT…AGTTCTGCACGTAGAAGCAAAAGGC
run_conditions: 42 °C
property: fraction ligated

Qu. Identify the reported fraction ligated for the following entry. TTCACTTGTCGAAGACATTTGGATGGGTTGA [3d421]
Ans. 0.79

Qu. Check the records and state fraction ligated for TATCACTTGTCGAAGACATTTGGATGGGTTA [3d1955]
Ans. 0.788

Qu. Please supply the value of reported fraction ligated for the item TACACTTGTCGTAGCACTTTGGATGGGTTGA [3d661]
Ans. 0.0075

Qu. Look up fraction ligated of TATCACTTGTCGTAGACACTTTGGATGGTTGA [2d231] and report it.
Ans. 0.678

Qu. Given ATCACTTGCGTAAGACACTTTGGATGGGTTA [3d154] , respond with its fraction ligated.
Ans. 0.567

Qu. Specify measured fraction ligated for TCACTTGCGTAAGACACTTTGGATGGGTTGA [3d7] .
Ans. 0.493

Qu. Kindly indicate its recorded fraction ligated. Item: TATCCTTGTGTAAGACACTTTGGTGGGTTGA [3d1010]
Ans. 0.062

Qu. // Input: TATCACTGTCGTAAGACACTTTGGATGGGTTG [2d146] . Output its fraction ligated only.
Ans. 0.798

Qu. Using the record for TAACTTGTCGTAAGACATTTGGATGGGTTGA [3d520] , state its measured fraction ligated.
Ans. 0.38

Qu. Check the records and state fraction ligated for TATCACTTGTCGTAAGACCTTTGGAGGTTGA [3d2200]
Ans. 0.049

Qu. Identify fraction ligated associated with the sequence TATACTTGTCGAAGACACTTGGATGGGTTGA [3d863]
Ans. 0.743

Qu. Supply measured fraction ligated of ATCACTTGTCGTAAGACACTTTGGTGGGTTA [3d268] in your reply.
Ans. 0.00829

Qu. Please indicate fraction ligated recorded for TATCACTTGTCGTAGACACTTTGGGGGTTGA [3d2048]
Ans. 0.0891

Qu. Give the reported fraction ligated for this sequence. TATCACTGTCGAGACACTTTGGATGGGTTGA [3d1372]
Ans. 0.826

Qu. Report measured fraction ligated; entry is TATCACTTGTCGTAGACACTTTGGATGGTTA [3d2055]
Ans. 0.406

Qu. In one line, give reported fraction ligated of the entry TATCACTTGTCGTAAGACATTTGATGGGTTG [3d2219] .
Ans. 0.098

Qu. Please look at this sequence and report its fraction ligated: TATCACTTGTCGTAAGACCTTTGAGGGTTGA [3d2192]
Ans. 0.0254

Qu. Input ATCACTTGCGTAAGACACTTGGATGGGTTGA [3d149] , output reported fraction ligated.
Ans. 0.726

Qu. Retrieve fraction ligated measured for TATACTTGTGTAAGACACTTTGATGGGTTGA [3d837] and print it.
Ans. 0.81

Qu. Annotate the sequence TACACTTGTCGTAAACACTTTGGATGGGTTG [3d681] with its measured fraction ligated.
Ans. 0.0503

Qu. Tell me its fraction ligated given TATCATTGTCGTAAGACACTTTGGATGGTTG [3d1290] as the entry.
Ans. 0.299

Qu. Supply fraction ligated value. Item: TATCACTTGTGAAGACACTTTGGTGGGTTGA [3d1726]
Ans. 0.102

Qu. Provide only the value of recorded fraction ligated for ATCACTTGTGTAAGACACTTTGGATGGGTTA [3d169]
Ans. 0.598

Qu. Return reported fraction ligated. Input sequence: TTCACTTGCGTAAACACTTTGGATGGGTTGA [3d375]
Ans. 0.356

###

System: F1*sub RNA substrate (template-directed ligation)
run_description: fraction ligated after 30 min (ligated reads / total reads); higher = more ligase activity; sequences stand for … in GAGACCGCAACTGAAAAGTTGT…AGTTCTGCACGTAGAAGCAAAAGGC
run_conditions: 42 °C
Note: every record was labeled by where its fraction ligated sits among lo (below 0.05), med (0.05 to below 0.6), hi (0.6 or more)

Qu. Category of TTCACTTGTCGTAAGACACTTTGATGGGTTGA [2d41] , please.
Ans. med

Qu. Assign a bin to TATCACTTGTCGTAAACACTTTGGAGGGTTG [3d2100]
Ans. lo

Qu. # classify by fraction ligated band: TATCTTGTCGTAAGACCTTTGGATGGGTTGA [3d749]
Ans. hi

Qu. # bin lookup: classify TTCACTTGTCGTAAGACACTTTGGTGGGTTA [3d499] by its fraction ligated
Ans. lo

Qu. # classify by fraction ligated band: TACACTTGTCGTAAGCACTTGGATGGGTTGA [3d685]
Ans. lo

Qu. Assign a category based on measured fraction ligated for TATCACTTGCGTAAGCCTTTGGATGGGTTGA [3d1650] and give only the class name.
Ans. hi

Qu. # bin label for TATACTTGTCGTAAGACACTTTGGATGGGTT [3d947]
Ans. lo

Qu. For the record TACACTTGCGTAGACACTTTGGATGGGTTGA [3d604] , report the class its fraction ligated corresponds to.
Ans. med

Qu. Sort into band: TATCACTTGTGTAAGAATTTGGATGGGTTGA [3d1764]
Ans. hi

Qu. GET /class?item= TATACTTGTCGTAAGACACTTGGATGGGTTA [3d930]
Ans. med

Qu. Kindly state the category for this sequence: TACACTTGTCGTAAGACACTTGGATGGGTTG [3d720]
Ans. med

###

Tested on: F1*sub RNA substrate (template-directed ligation)
run_description: fraction ligated after 30 min (ligated reads / total reads); higher = more ligase activity; sequences stand for … in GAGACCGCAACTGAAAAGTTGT…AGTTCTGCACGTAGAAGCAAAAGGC
run_conditions: 42 °C
Would you mind telling me the reported fraction ligated of each entry?
Lab note: jot the number down without any unit.

Qu. // fetch fraction ligated given entry TTCACTTGTGTAGACACTTTGGATGGGTTGA [3d389]
Ans. 0.762

Qu. Please give measured fraction ligated of the following entry: TATACTTGTCGTAAGACACTTTGGATGGTTA [3d945]
Ans. 0.0396

Qu. Tell us which fraction ligated value is on record for TATCACTTTCGTAAGCACTTTGGATGGGTTA [3d1537]
Ans. 0.727

Qu. Indicate the recorded fraction ligated value for this sequence: TATACTTGTCGTAGACATTTGGATGGGTTGA [3d875]
Ans. 0.759

Qu. Please report the measured fraction ligated for TATCACTTGTCGTAAGCCTTTGGTGGGTTGA [3d2116]
Ans. 0.243

Qu. Indicate its recorded fraction ligated; the sequence in question is TATCACTTTGTAAGAACTTTGGATGGGTTGA [3d1469]
Ans. 0.866

Qu. Give recorded fraction ligated. TATCACTGTGTAAGACACTTGGATGGGTTGA [3d1351]
Ans. 0.821

Qu. Quickly give me recorded fraction ligated for TATCACTTGTCGTAAACACTTTGGATGGGTT [3d2103]
Ans. 0.628

Qu. Return reported fraction ligated. Input sequence: TATACTTGTCGTAAGCACTTTGGATGGTTGA [3d900]
Ans. 0.0214

Qu. Could you please provide reported fraction ligated for TATCACTGTCGTAGACACTTTGGAGGGTTGA [3d1394] ? Thanks!
Ans. 0.13

Qu. Kindly indicate its recorded fraction ligated. Item: TATCACTTGTCGTAAGACATTTGGATGGTTGA [2d273]
Ans. 0.121

Qu. Entry TTCATGTCGTAAGACACTTTGGATGGGTTGA [3d317] needs its fraction ligated filled in; supply it.
Ans. 0.468

Qu. Specify reported fraction ligated for the sequence shown: TATCACTTGTGTAAGAACTTTGGTGGGTTGA [3d1767]
Ans. 0.0854

Qu. Answer with the recorded fraction ligated of TATCACTTGTCGTAAGACCTTGGTGGGTTGA [3d2185] only.
Ans. 0.0725

Qu. Using known records, supply fraction ligated for TATCACTTGGAAGACACTTTGGATGGGTTGA [3d1585]
Ans. 0.823

Qu. Tell me measured fraction ligated for TATACTTTCGTAAGACACTTGGATGGGTTGA [3d805] please.
Ans. 0.43

Qu. Consider the sequence TATCCTTGTGTAAGACACTTTGATGGGTTGA [3d1009] . State its measured fraction ligated.
Ans. 0.799

Qu. In one line, give reported fraction ligated of the entry TATCATTGTCGTAAGCACTTTGATGGGTTGA [3d1241] .
Ans. 0.58

Qu. Input TATCACTGTCGTAAACATTTGGATGGGTTGA [3d1400] , output reported fraction ligated.
Ans. 0.822

Qu. # return recorded fraction ligated for entry TTCACTTGCGTAAGACCTTTGGATGGGTTGA [3d378]
Ans. 0.311

Qu. Input TATCACTTTCGTAAACACTTTGGATGGGTTG [3d1528] , output reported fraction ligated.
Ans. 0.776

Qu. Identify measured fraction ligated corresponding to TATCCTTGTCGTAAGACATTGGATGGGTTGA [3d1090]
Ans. 0.772

Qu. Give fraction ligated for TATCACTTGTCGTAGAACTTTGGAGGGTTGA [3d2017]
Ans. 0.119

Qu. Fill in fraction ligated for record TTCACTTGTCGTAAGACACTTTGGAGGGTTA [3d502]
Ans. 0.0179
